tested on: RXF 393; test: NCI tumour cell line growth inhibition, 48 h
Activity calls are given as the source filed them. Rule as the data show it: active = GI50 up to about 1.1 µM and inactive = higher.
Use one of these outcomes when replying: label 1 for active, label 0 for inactive

Here are 5 compounds together with their reported answers.
COC1(OC)C2(Cl)C(Cl)=C(Cl)C1(Cl)C1C=CC=CC12 (centres undefined): label 0
CC1CC(=O)Nc2ccccc2N1C(=O)CN1CCC(CCCCN(C)C)CC1 (centres undefined): label 0
CSc1nc(C)c2c(n1)SCC2: label 0
CN1C(=O)c2ccccc2OC12C=Cc1c(ccc3ccccc13)O2 (centres undefined): label 0
Cc1cccc2c1Oc1ccccc1C2NC(=O)c1ccc([N+](=O)[O-])cc1 (centres undefined): label 0

Incoming: What did this assay record as the result for Cc1cc2c(cc1Cl)SC(NNC(=O)c1ccco1)=NS2(=O)=O ?
Outgoing: label 0

Incoming: Further, for C(/C=N/c1ccccc1)=C(/Nc1ccccc1)c1ccc2ccccc2c1 ?
Outgoing: label 0

Incoming: Further, for O=C(OCc1c(-c2ccccc2)nn(-c2ccccc2)c1COC(=O)Oc1ccccc1)Oc1ccccc1 ?
Outgoing: label 0

Incoming: Further, for Cc1ccc(C(=O)NC2C(=O)NC(C(C)C)C(=O)N3CCCC3C(=O)N(C)CC(=O)N(C)C(C(C)C)C(=O)OC2C)c2c1Oc1c(c(C(=O)NC3C(=O)NC(C(C)C)C(=O)N4CCCC4C(=O)N(C)CC(=O)N(C)C(C(C)C)C(=O)OC3C)c3nc(-c4ccccc4)c(=O)oc3c1C)N2 (centres undefined) ?
Outgoing: label 1
